System: F380Y
assayProtocol: modulators of BK channel variants, profiling panel, selectivity assay, cell-based, U2OS BacMam, thallium flux, beta subunits (AID 1259406);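 also: initial slope of Thallos dye fluorescence rise after thallium is added; log ratio against the mean of 0.3% DMSO vehicle wells on the same plate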
setupConditions: at 30 µM
Each entry falls in a class defined on log fold change Tl+ flux; the bands are low range: < -0.004; mid range: ≥ -0.004 and < 0.04; high range: ≥ 0.04

The following molecules have reported results that may help.
{"molecule": "CCCCCCNC(=O)n1cc(F)c(=O)[nH]c1=O", "group": "low range"}
{"molecule": "Cc1cn([C@H]2C[C@H](N=[N+]=[N-])[C@@H](CO)O2)c(=O)[nH]c1=O", "group": "mid range"}
{"molecule": "COC1=CC(=O)C[C@@H](C)[C@]12Oc1c(Cl)c(OC)cc(OC)c1C2=O", "group": "mid range"}
{"molecule": "CC(COc1ccccc1)NC(C)C(O)c1ccc(O)cc1 (centres undefined)", "group": "mid range"}
{"molecule": "CC1(C)O[C@@H]2[C@@H](CO[C@@]3(COS(N)(=O)=O)OC(C)(C)O[C@@H]23)O1", "group": "mid range"}

Please let me know in which category the item CN(C)CCc1c[nH]c2ccc(C[C@H]3COC(=O)N3)cc12 belongs.
high range

Please let me know in which category the item Cc1ccc(C)c(OCCCC(C)(C)C(=O)O)c1 belongs.
high range

Please let me know in which category the item CC(C)NCC(O)c1ccc(O)c(O)c1 (centres undefined) belongs.
mid range

Please let me know in which category the item CCCN(CCC)S(=O)(=O)c1ccc(C(=O)O)cc1 belongs.
low range

Please let me know in which category the item CC1=C(C(=O)O)N2C(=O)[C@@H](NC(=O)[C@H](N)c3ccccc3)[C@H]2SC1 belongs.
low range

----------
assayProtocol: inhibition of endothelial tube formation, primary screen, imaging, VEGF stimulated, CD31 staining, tube area, NPC library (AID 1117340)
setupConditions: VEGF-stimulated ADSC/ECFC co-culture, at 10 µM, stronger effect = higher value
Can you tell me tube area decrease for the items I'm about to list?
One number for each entry, in %.

Solved cases (6 shown):
{"compound": "CC1=C(C(=O)O)N2C(=O)[C@@H](NC(=O)[C@H](N)c3ccccc3)[C@H]2SC1", "tube area decrease [%]": -2.6}
{"compound": "COC1=CC(=O)C[C@@H](C)[C@]12Oc1c(Cl)c(OC)cc(OC)c1C2=O", "tube area decrease [%]": 24.2}
{"compound": "CC(CCc1ccc2c(c1)OCO2)NN (configuration not stated)", "tube area decrease [%]": 23.7}
{"compound": "NS(=O)(=O)c1cc(-c2nn[nH]n2)c(NCc2cccs2)cc1Cl", "tube area decrease [%]": -8.2}
{"compound": "CN(C)[C@@H]1C(=O)C(C(=O)NCN2CCCC2)=C(O)[C@@]2(O)C(=O)C3=C(O)c4c(O)cccc4[C@@](C)(O)C3C[C@@H]12 (some centres not stated)", "tube area decrease [%]": -7.9}
{"compound": "COc1ccc(C(C#N)C(C)C)cc1OC (configuration not stated)", "tube area decrease [%]": 9.3}

Need tube area decrease for each of these compounds.
1. CCN1CCN(C(=O)N[C@@H](C(=O)N[C@@H]2C(=O)N3[C@@H]2SC(C)(C)[C@H]3C(=O)O)c2ccccc2)C(=O)C1=O
2. Cc1ccc(CCn2c3c(c4cc(Cl)ccc42)CN(C)CC3)cn1
3. Cc1cc(O)cc2c1O[C@](C)(CCC[C@H](C)CCC[C@H](C)CCCC(C)C)CC2

1. -12.7
2. 3.4
3. 6.7

Need tube area decrease for each of these compounds.
1. CC(C)C[C@@H](N)C(=O)O
2. N#C/C(=C1\SCC(c2ccccc2Cl)S1)n1ccnc1 (configuration not stated)

1. 11.2
2. 21.9

Need tube area decrease for each of these compounds.
1. O=C(O)CNC(=O)CNC(=O)CNC(=O)CSC(=O)c1ccccc1
2. CCCCCCCCCCCCCCCCCCNC(=O)OC1CCN(C(=O)OC[C@H](COC(=O)N(Cc2cccc[n+]2CC)C(=O)c2ccccc2OC)OC)CC1
3. CN(C)CCOc1ccccc1Cc1ccccc1
4. CCCNC(=O)NS(=O)(=O)c1ccc(Cl)cc1

[-8.3, 111, 4.9, -1.2]

----------
targetOrTestSystem: Mitogen-activated protein kinase 7 (Homo sapiens)
assayProtocol: ERK5 transactivation activators in reporter cells, primary screen, cell-based, HTS (AID 1508626);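 also: luciferase driven by Gal4-ERK5 fusion binding five Gal4 sites before minimal TATA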
setupConditions: HeLa Gal4-ERK5 transactivation, 18 h, at 5 µM, stronger effect = higher value
Activity calls are given as the source filed them.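 Rule for the calls: active = luciferase signal above three times the same-plate solvent-only control wells; inactive = the rest.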
Can you tell me luciferase signal for the items I'm about to list?

Solved cases (6 shown):
{"smilesNotation": "NC12CC3CC(CC(C3)C1)C2", "targetOrTestSystem": "Mitogen-activated protein kinase 7 (Homo sapiens)", "luciferase signal": "44 AU (inactive)"}
{"smilesNotation": "CCCN1C[C@H](CSC)C[C@@H]2c3cccc4[nH]cc(c34)C[C@H]21", "targetOrTestSystem": "Mitogen-activated protein kinase 7 (Homo sapiens)", "luciferase signal": "40 AU (inactive)"}
{"smilesNotation": "C=CCCCCCCCCC(=O)O", "targetOrTestSystem": "Mitogen-activated protein kinase 7 (Homo sapiens)", "luciferase signal": "20 AU (inactive)"}
{"smilesNotation": "CCOc1ccc2ccccc2c1C(=O)N[C@@H]1C(=O)N2[C@@H]1SC(C)(C)[C@@H]2C(=O)O", "targetOrTestSystem": "Mitogen-activated protein kinase 7 (Homo sapiens)", "luciferase signal": "76 AU (inactive)"}
{"smilesNotation": "CCOC(=O)N1CCC(=C2c3ccc(Cl)cc3CCc3cccnc32)CC1", "targetOrTestSystem": "Mitogen-activated protein kinase 7 (Homo sapiens)", "luciferase signal": "48 AU (inactive)"}
{"smilesNotation": "CCCCNC(=O)NS(=O)(=O)c1ccc(C)cc1", "targetOrTestSystem": "Mitogen-activated protein kinase 7 (Homo sapiens)", "luciferase signal": "36 AU (inactive)"}

Need luciferase signal for each of these compounds.
1. CN[C@H]1CC[C@@H](c2ccc(Cl)c(Cl)c2)c2ccccc21
2. CC[C@]1(O)C[C@@H]2CN(CCc3c([nH]c4ccccc34)[C@@](C(=O)OC)(c3cc4c(cc3OC)N(C)[C@H]3[C@@](O)(C(=O)OC)[C@H](OC(C)=O)[C@]5(CC)C=CCN6CC[C@]43[C@@H]65)C2)C1
3. OCCN1CCN(CCCN2c3ccccc3Sc3ccc(Cl)cc32)CC1
4. OCCN1C[C@H](O)[C@@H](O)[C@H](O)[C@H]1CO

1: 48 AU (inactive); 2: 72 AU (inactive); 3: 44 AU (inactive); 4: 80 AU (inactive)

----------
Can you tell me normalised cell number for the items I'm about to list?
assayProtocol: differential killing of epithelial or mesenchymal cells, primary screen, imaging, PC-3E GFP, TEM4-18 mCherry, co-culture (AID 1345086);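 also: cells exposed to compound for 72 h before imaging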
setupConditions: imaging cell counts, measured here: mesenchymal TEM4-18 mCherry cell survival, at 1 µM
Give bare numbers.

Solved cases (5 shown):
{"compound": "CC(N=C(NC#N)Nc1ccncc1)C(C)(C)C (stereo unspecified)", "normalised cell number": 1.72}
{"compound": "O=C1NC(=O)C(c2ccccc2)(c2ccccc2)N1", "normalised cell number": 0.99}
{"compound": "O=C1c2c(O)ccc(O)c2C(=O)c2c(NCCNCCO)ccc(NCCNCCO)c21", "normalised cell number": 0.12}
{"compound": "CCc1cccc2c3c([nH]c12)C(CC)(CC(=O)O)OCC3 (stereo unspecified)", "normalised cell number": 1.03}
{"compound": "CN(C)CCOC(c1ccccc1)c1ccccc1", "normalised cell number": 1.37}

Need normalised cell number for each of these compounds.
1. CC(C)[N+](C)(CCOC(=O)C1c2ccccc2Oc2ccccc21)C(C)C
2. Cc1cn([C@H]2C[C@H](N=[N+]=[N-])[C@@H](CO)O2)c(=O)[nH]c1=O
3. CCOC(=O)[C@H](CCc1ccccc1)N[C@@H](C)C(=O)N1Cc2ccccc2C[C@H]1C(=O)O
4. OCCN(CCO)c1nc(N2CCCCC2)c2nc(N(CCO)CCO)nc(N3CCCCC3)c2n1
5. CC(C)Cc1ccc(C(C)C(=O)O)cc1 (stereo unspecified)
6. OC(CCN1CCCC1)(c1ccccc1)C1CCCCC1 (stereo unspecified)

[1.3, 1.09, 1.12, 1.22, 1.11, 1.03]

----------
targetOrTestSystem: Cellular tumor antigen p53 (Homo sapiens) (UniProt P04637)
Sequence (P04637 whole entry, looked up): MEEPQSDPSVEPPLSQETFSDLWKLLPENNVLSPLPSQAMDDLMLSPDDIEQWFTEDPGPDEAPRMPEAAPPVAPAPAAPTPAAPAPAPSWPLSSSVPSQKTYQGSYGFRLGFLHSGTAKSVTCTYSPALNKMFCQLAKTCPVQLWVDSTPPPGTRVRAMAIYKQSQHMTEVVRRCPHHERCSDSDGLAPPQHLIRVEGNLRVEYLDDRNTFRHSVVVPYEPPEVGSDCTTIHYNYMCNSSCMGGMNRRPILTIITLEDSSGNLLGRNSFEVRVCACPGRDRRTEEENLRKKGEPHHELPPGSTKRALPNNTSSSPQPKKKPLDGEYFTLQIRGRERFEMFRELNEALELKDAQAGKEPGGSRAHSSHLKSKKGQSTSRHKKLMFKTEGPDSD
assayProtocol: kinase inhibitors altering GFP-p53 stability in HPV16-positive cells, imaging, known kinase inhibitor set, EGFP/DsRed ratio (AID 1053116);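 also: cells exposed to compounds for 24 h at 37 °C before reading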
setupConditions: stronger effect = higher value
Active and inactive are the calls of the source. The rule behind the calls is not given here.
propertyLabel: EGFP/DsRed ratio

{"smilesNotation": "COC(=O)c1sc(-n2cnc3cc(OC)c(OC)cc32)cc1OCc1ccccc1C(F)(F)F", "EGFP/DsRed ratio": "0.108 (inactive)"}
{"smilesNotation": "O=C1NC(=O)C(c2cccc(Cl)c2)=C1Nc1ccc(Cl)c(C(=O)O)c1", "EGFP/DsRed ratio": "0.103 (inactive)"}
{"smilesNotation": "Cc1ccc(O)cc1Nc1ccnc2ccc(S(C)(=O)=O)cc12", "EGFP/DsRed ratio": "0.0595 (inactive)"}
{"smilesNotation": "COc1ccc(CCN=C2NC(=O)C(=Cc3ccc4ncccc4c3)S2)cc1", "EGFP/DsRed ratio": "0.381 (inactive)"}

Need EGFP/DsRed ratio for each of these compounds.
1. Nc1nc(-c2ccc3c(c2)/C(=C\c2cc(Br)c(O)c(Br)c2)C(=O)N3)cs1
2. Nc1c(C(=O)c2ccccc2)cnn1-c1ccc(F)cc1
3. COc1cccc(F)c1C(=O)c1cnc(NC2CCN(S(C)(=O)=O)CC2)nc1N
4. Nc1c(C(=O)c2ccc(C#CCN3CCOCC3)cc2)cnn1-c1ccc(F)cc1
5. Nc1ccc(C#Cc2cncnc2Nc2ccc(OCc3cccc(F)c3)c(Cl)c2)cc1
6. COc1ccc2ncn(-c3cc(O[C@H](C)c4ccccc4C(F)(F)F)c(C(N)=O)s3)c2c1

1: 0.264 (inactive); 2: 0.17 (inactive); 3: 0.124 (inactive); 4: 0.119 (inactive); 5: 0.276 (inactive); 6: 0.176 (inactive)

Need EGFP/DsRed ratio for each of these compounds.
1. CNC(=O)c1cccc(C#Cc2cncnc2Nc2ccc(OCc3cccc(F)c3)c(Cl)c2)c1
2. COc1cc(N2CCN(C(C)C)CC2)ccc1Nc1nc(Nc2cccc3ncccc23)c2cc[nH]c2n1
3. Nc1c(C(=O)c2cccc(C#CCO)c2)cnn1-c1ccc(F)cc1

1: 0.0111 (inactive); 2: 0.00687 (inactive); 3: 0.0236 (inactive)

Need EGFP/DsRed ratio for each of these compounds.
1. CCS(=O)(=O)c1ccc(OC)c(Nc2ncc(-c3cccc(-c4ccccc4F)c3)o2)c1
2. COc1cc[nH]c1C=C1C(=O)Nc2ccc(F)c(C#CC3(O)CCNCC3)c21

1. 0.511 (inactive)
2. 3.03 (inactive)

Need EGFP/DsRed ratio for each of these compounds.
1. CS(=O)(=O)CCCn1c(=O)c(Oc2ccc(F)cc2F)cc2cnc(NC3CCOCC3)nc21
2. NC(=O)c1ccc(Oc2nccc(-c3c(-c4ccc(F)cc4)ncn3C3CCNCC3)n2)cc1
3. CCc1ccc(Oc2nccc(-c3c(-c4ccc(F)cc4)ncn3C3CCNCC3)n2)cc1
4. CSc1c(C2=C(c3cn(C)c4ccccc34)C(=O)NC2=O)c2ccccc2n1C

0.0135 (inactive)
0.173 (inactive)
0.0563 (inactive)
0.217 (inactive)

Provide one value: measured EGFP/DsRed ratio of CC(C)c1ccc(Nc2nccc(-c3cnn4ncccc34)n2)cc1
0.181 (inactive)

From: PubChem BioAssay
